Target: Polyunsaturated fatty acid lipoxygenase ALOX15 (Homo sapiens) (UniProt P16050)
Sequence (whole entry): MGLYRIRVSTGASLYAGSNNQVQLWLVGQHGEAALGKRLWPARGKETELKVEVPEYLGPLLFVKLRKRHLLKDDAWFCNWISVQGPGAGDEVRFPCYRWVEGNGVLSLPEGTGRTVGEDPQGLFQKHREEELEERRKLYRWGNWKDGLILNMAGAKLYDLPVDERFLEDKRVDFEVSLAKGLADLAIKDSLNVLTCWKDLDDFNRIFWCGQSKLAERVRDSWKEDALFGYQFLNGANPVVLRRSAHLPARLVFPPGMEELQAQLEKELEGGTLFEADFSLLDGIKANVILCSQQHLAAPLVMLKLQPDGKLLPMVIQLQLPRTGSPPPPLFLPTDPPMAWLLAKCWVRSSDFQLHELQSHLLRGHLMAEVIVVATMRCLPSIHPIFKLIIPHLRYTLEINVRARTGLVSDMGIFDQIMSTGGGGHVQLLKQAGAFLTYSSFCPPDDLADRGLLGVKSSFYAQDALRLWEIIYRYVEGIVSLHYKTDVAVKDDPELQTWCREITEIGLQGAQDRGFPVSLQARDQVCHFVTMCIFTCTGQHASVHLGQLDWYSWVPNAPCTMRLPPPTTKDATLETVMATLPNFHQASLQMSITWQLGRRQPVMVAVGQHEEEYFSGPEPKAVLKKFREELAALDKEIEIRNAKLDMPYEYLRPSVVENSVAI
Experiment: Inhibition of 15-LOX-1 in human blood PMNL assessed as remaining activity by measuring 15-HETE synthesis at 10 uM
Would you kindly list Activity for each of these compounds?
Numbers only, in %.

CCCCCCCCCCCC1=C(O)C(=O)C=C(O)C1=O | 91.5
CCCCC1=C(OC)C(=O)C=C(OC)C1=O | 103

Then this compound:
Problem: Recorded Activity of "CCCCC1=C(O)C(=O)C=C(O)C1=O" , please.
Result: 82.3

----------
Target: Polyunsaturated fatty acid lipoxygenase ALOX15 (Homo sapiens) (UniProt P16050)
Experiment: Inhibition of 15-LOX-1 in human blood PMNL assessed as remaining activity by measuring 15-HETE synthesis at 10 uM
measure: Activity (%)
One number for each entry, in %.

CCCCCCCCCCCCCC1=C(O)C(=O)C=C(OC)C1=O | 88.1
CCCCCCCCCCCCCCCCC1=C(O)C(=O)C=C(OC)C1=O | 119
CCCCCCCCCCCCCCC1=C(OC)C(=O)C=C(OC)C1=O | 116
CCCCCCCCC1=C(OC)C(OC)=CC(=O)C1=O | 102
COC1=CC(=O)C(O)=C(C/C=C(\C)CC/C=C(\C)CCC=C(C)C)C1=O | 122

Report Activity for every entry below.
1. CCCCCCCCCCCCC1=C(OC)C(OC)=CC(=O)C1=O
2. CCCCCCCCCCC1=C(O)C(=O)C=C(OC)C1=O
3. CCCCCCCCCCCCCCC1=C(O)C(=O)C=C(O)C1=O

Result:
[133, 123, 139]

Problem: Recorded Activity of "CC(C)=CCC/C(C)=C/CC1=C(O)C(=O)C=C(O)C1=O" , please.
Result: 92

----------
Target: Polyunsaturated fatty acid 5-lipoxygenase (Homo sapiens)
Assay: Inhibition of 5-LOX in A23187-stimulated human blood PMNL assessed as reduction in lipoxygenase products formation pre-incubated for 15 mins followed by stimulation with A23187 for 10 mins by RP-HPLC based cell based assay
pIC50: −log10 of the molar value.
Parameter threshold = 6. Response is 1 when pIC50 meets or exceeds it, else -1.

Example entries and their recorded answers appear below.
CC(C)=CCC/C(C)=C/CC/C(C)=C/CC1=C(O)C(=O)C=C(O)C1=O | -1
CCCCCCCCCCCCCCCC1=C(O)C(=O)C=C(O)C1=O | -1
CCCCCCCCCCCCC1=C(O)C(=O)C=C(O)C1=O | -1
CCCCCCCCCCCCCCCCC1=C(O)C(=O)C=C(O)C1=O | -1
CCCCCCCCCCCC1=C(OC)C(OC)=CC(=O)C1=O | 1

Problem: Given the entry "CCCCCCCCCCCCCCC1=C(O)C(=O)C=C(O)C1=O" , answer whether its pIC50 meets or surpasses 6.
Result: -1

Problem: Given the entry "CCCCCCCCCCCCC1=C(OC)C(OC)=CC(=O)C1=O" , answer whether its pIC50 meets or surpasses 6.
Result: 1

Problem: Given the entry "CCCCCCCCCCCCC1=C(O)C(=O)C=C(OC)C1=O" , answer whether its pIC50 meets or surpasses 6.
Result: 1

----------
Would you kindly list log10(IC50) for each of these compounds?
Biological target: UniProtKB P09917
Experiment: Inhibition of human recombinant 5-LOX expressed in Escherichia coli BL21 incubated for 10 mins in presence of arachidonic acid by RP-HPLC based cell-free assay
Please note: log10 values; quantity IC50; unit µM.

The examples below pair each entry with its known result.
CCCCCCCCCCCCCCCC1=C(O)C(=O)C=C(O)C1=O | -0.64
CCCCCCCCCCCCC1=C(OC)C(=O)C=C(OC)C1=O | -0.21
COC1=CC(=O)C(O)=C(C/C=C(\C)CC/C=C(\C)CCC=C(C)C)C1=O | 0.75
CC(C)=CCC/C(C)=C/CC1=C(O)C(=O)C=C(O)C1=O | 0.26

Report log10(IC50) for every entry below.
1. CCCCCCCCCCCCCCC1=C(OC)C(=O)C=C(OC)C1=O
2. CCCCCCCCC1=C(O)C(=O)C=C(OC)C1=O
3. CCCCCCCCCCCCCC1=C(O)C(=O)C=C(OC)C1=O

Result:
1. -0.68
2. 0.48
3. -0.04

----------
Target: Polyunsaturated fatty acid 5-lipoxygenase (Homo sapiens, UniProt P09917)
Sequence (P09917 whole entry): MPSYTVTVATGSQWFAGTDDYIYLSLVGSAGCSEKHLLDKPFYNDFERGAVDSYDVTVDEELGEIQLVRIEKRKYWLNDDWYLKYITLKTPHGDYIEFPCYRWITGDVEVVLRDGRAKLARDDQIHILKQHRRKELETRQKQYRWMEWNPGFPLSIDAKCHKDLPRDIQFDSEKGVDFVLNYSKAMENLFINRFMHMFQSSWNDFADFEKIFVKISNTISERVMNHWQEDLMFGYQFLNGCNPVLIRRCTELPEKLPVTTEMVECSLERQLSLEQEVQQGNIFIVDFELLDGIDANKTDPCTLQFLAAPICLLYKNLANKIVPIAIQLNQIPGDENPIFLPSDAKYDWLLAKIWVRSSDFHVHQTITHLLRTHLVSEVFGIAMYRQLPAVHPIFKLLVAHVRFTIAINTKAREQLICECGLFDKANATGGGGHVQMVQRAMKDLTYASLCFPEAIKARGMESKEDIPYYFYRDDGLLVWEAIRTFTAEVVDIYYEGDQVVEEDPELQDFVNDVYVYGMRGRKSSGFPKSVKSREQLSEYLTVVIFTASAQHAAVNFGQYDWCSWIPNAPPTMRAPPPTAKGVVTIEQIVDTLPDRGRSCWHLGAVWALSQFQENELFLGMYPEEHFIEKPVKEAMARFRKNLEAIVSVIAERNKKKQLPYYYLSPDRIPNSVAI
Test: Inhibition of 5-LOX in A23187-stimulated human blood PMNL assessed as reduction in lipoxygenase products formation in presence of arachidonic acid pre-incubated for 15 mins followed by stimulation with A23187 for 10 mins by RP-HPLC based cell based assay
Would you kindly list pIC50 for each of these compounds?
Numbers only, as −log10 of the molar value.

The examples below pair each entry with its known result.
CCCCCCCCCCCCCCCCC1=C(OC)C(=O)C=C(OC)C1=O | 5.46
CCCCCCCCCCCCCCC1=C(OC)C(OC)=CC(=O)C1=O | 7.05
CCCCCCCCCCCCCCC1=C(O)C(=O)C=C(OC)C1=O | 6.31

Report pIC50 for every entry below.
1. CCCCCCCCCCCC1=C(O)C(=O)C=C(OC)C1=O [5-O-METHYLEMBELIN]
2. COC1=CC(=O)C(=O)C(C/C=C(\C)CC/C=C(\C)CCC=C(C)C)=C1OC

Result:
1: 5.89; 2: 7.00

----------
Would you kindly list pIC50 for each of these molecules?
Target: Polyunsaturated fatty acid 5-lipoxygenase (Homo sapiens, UniProt P09917)
Experiment: Inhibition of 5-LOX in A23187-stimulated human blood PMNL assessed as reduction in lipoxygenase products formation in presence of arachidonic acid pre-incubated for 15 mins followed by stimulation with A23187 for 10 mins by RP-HPLC based cell based assay
pIC50: −log10 of the molar value.

CC(C)=CCC/C(C)=C/CC/C(C)=C/CC1=C(O)C(=O)C=C(O)C1=O | < 5.00

Report pIC50 for every entry below.
1. CCCCCCCCC1=C(O)C(=O)C=C(OC)C1=O
2. CCCCCCC1=C(O)C(=O)C=C(OC)C1=O
3. CCCCCCCCCCCCCCCCC1=C(O)C(=O)C=C(O)C1=O
4. CCCCC1=C(O)C(=O)C=C(OC)C1=O
5. COC1=CC(=O)C(OC)=C(C/C=C(\C)CCC=C(C)C)C1=O
6. CCCCCCCCCCC1=C(OC)C(=O)C=C(OC)C1=O
7. CCCCCCCCCCCC1=C(OC)C(OC)=CC(=O)C1=O
8. CCCCCCCCCCCCCCCC1=C(O)C(=O)C=C(O)C1=O

Result:
1. < 5.00
2. < 5.00
3. < 5.00
4. < 5.00
5. 5.80
6. 5.77
7. 7.00
8. < 5.00

Problem: Recorded pIC50 of "CCCCCCCCC1=C(O)C(=O)C=C(O)C1=O" , please.
Result: < 5.00

----------
Would you kindly list pIC50 for each of these compounds?
Target: Polyunsaturated fatty acid 5-lipoxygenase (Homo sapiens, UniProt P09917)
Assay: Inhibition of 5-LOX in A23187-stimulated human blood PMNL assessed as reduction in lipoxygenase products formation pre-incubated for 15 mins followed by stimulation with A23187 for 10 mins by RP-HPLC based cell based assay
One number for each entry, as −log10 of the molar value.

Report pIC50 for every entry below.
1. CCCCCCC1=C(OC)C(=O)C=C(OC)C1=O
2. CCCCCCCCCCC1=C(O)C(=O)C=C(O)C1=O

Result:
1: 6.49; 2: 5.70

----------
Target: UniProtKB P09917
Assay: Inhibition of human recombinant 5-LOX expressed in Escherichia coli BL21 incubated for 10 mins in presence of arachidonic acid by RP-HPLC based cell-free assay
pIC50: −log10 of the molar value.
measure: pIC50

Report pIC50 for every entry below.
1. COC1=CC(=O)C(O)=C(C/C=C(\C)CCC=C(C)C)C1=O
2. CCCCC1=C(O)C(=O)C=C(OC)C1=O
3. CCCCC1=C(O)C(=O)C=C(O)C1=O

Result:
1: < 5.00; 2: < 5.00; 3: < 5.00

Sourced from ChEMBL document CHEMBL3414543
